molecular target: AR (Homo sapiens, UniProt P10275); construct: endogenous in cells; host or cells: VCaP cells; test: VCAP AR Degradation Assay; type: cell-based; settings: class symbols *, **
Sequence (P10275 whole entry): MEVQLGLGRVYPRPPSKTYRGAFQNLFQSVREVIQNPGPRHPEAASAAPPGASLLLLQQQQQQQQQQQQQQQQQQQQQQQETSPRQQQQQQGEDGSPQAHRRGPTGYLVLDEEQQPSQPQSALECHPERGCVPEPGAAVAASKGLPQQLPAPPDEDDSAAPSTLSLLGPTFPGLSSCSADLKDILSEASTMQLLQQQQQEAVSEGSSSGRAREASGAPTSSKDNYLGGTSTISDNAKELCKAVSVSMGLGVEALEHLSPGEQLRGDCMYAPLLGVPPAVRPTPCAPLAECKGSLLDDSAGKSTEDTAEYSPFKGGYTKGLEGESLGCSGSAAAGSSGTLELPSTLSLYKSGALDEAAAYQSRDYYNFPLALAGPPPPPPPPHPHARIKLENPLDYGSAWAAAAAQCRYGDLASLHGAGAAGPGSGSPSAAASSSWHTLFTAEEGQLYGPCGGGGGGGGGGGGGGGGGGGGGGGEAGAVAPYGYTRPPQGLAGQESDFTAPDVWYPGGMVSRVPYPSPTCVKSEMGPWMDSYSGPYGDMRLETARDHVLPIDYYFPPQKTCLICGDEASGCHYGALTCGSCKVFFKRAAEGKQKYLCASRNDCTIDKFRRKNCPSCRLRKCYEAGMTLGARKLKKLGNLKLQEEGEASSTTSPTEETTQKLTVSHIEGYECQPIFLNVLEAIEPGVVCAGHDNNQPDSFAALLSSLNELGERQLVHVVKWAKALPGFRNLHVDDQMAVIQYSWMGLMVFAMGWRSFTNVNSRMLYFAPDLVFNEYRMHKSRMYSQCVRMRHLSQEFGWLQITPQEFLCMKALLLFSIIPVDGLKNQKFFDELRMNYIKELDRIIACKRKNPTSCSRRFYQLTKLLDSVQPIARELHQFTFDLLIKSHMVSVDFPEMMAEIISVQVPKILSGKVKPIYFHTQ
assay-readout: Y (AR degradation efficiency, % of DMSO control)

[[record]]
compound = "CC(C)c1cc(N2C(=S)N(c3cnc(C#N)c(C(F)(F)F)c3)C(=O)C2(C)C)ccc1OCCN1CCN(CC(=O)Nc2cccc(NC3CCC(=O)NC3=O)c2)CC1 (centres unmarked)"
result = "* (0<Y<=25%)"

[[record]]
compound = "CC(C)c1cc(N2C(=S)N(c3ccc(C#N)c(C(F)(F)F)c3)C(=O)C2(C)C)cnc1OCCN1C[C@@H](C)N(CC(=O)Nc2cc(C#N)cc(NC3CCC(=O)NC3=O)c2)C[C@H]1C (some centres unmarked)"
result = "* (0<Y<=25%)"

[[record]]
compound = "CCc1cc(N2C(=S)N(c3cnc(C#N)c(C(F)(F)F)c3)C(=O)C23CCC3)ccc1OCCN1CCN(CC(=O)Nc2cc(Cl)cc(NC3CCC(=O)NC3=O)c2)[C@H](C)C1 (some centres unmarked)"
result = "* (0<Y<=25%)"


====

biological target: AR (Homo sapiens, UniProt P10275); construct: endogenous in cells; host or cells: VCaP cells; test: VCAP AR Degradation Assay; type: cell-based; settings: class symbols *, **
Where a name gives a salt, the structure may show the parent alone.
assay-readout: Y (AR degradation efficiency, % of DMSO control)

[[record]]
compound = "C[C@@H]1CN(CCOc2ccc(N3C(=S)N(c4ccc(C#N)c(Cl)c4)C(=O)C3(C)C)cc2C2CC2)C[C@H](C)N1CC(=O)Nc1cc(C#N)cc(NC2CCC(=O)NC2=O)c1 (some centres unmarked) [Example 219]"
result = "** (25%<Y<=35%)"

[[record]]
compound = "C[C@@H]1CN(CCOc2ccc(N3C(=S)N(c4ccc(C#N)c(C(F)(F)F)c4)C(=O)C34CCC4)cc2C2CC2)C[C@H](C)N1CC(=O)Nc1cccc(NC2CCC(=O)NC2=O)c1 (some centres unmarked) [Example 225]"
result = "* (0<Y<=25%)"

[[record]]
compound = "CC1(C)C(=O)N(c2ccc(C#N)c(C(F)(F)F)c2)C(=S)N1c1ccc(OCCN2CCN(CC(=O)Nc3cccc(NC4CCC(=O)NC4=O)c3)CC2)c(F)c1 (centres unmarked) [Example 1, formate]"
result = "*** (35%<Y<50%)"

[[record]]
compound = "CC1(C)C(=O)N(c2cnc(C#N)c(C(F)(F)F)c2)C(=S)N1c1ccc(OCCN2CCN(CC(=O)Nc3cc(Cl)cc(NC4CCC(=O)NC4=O)c3)CC2)cc1 (centres unmarked) [Example 24]"
result = "* (0<Y<=25%)"

[[record]]
compound = "CCc1cc(N2C(=S)N(c3ccc(C#N)c(C(F)(F)F)c3)C(=O)C2(C)C)ccc1OCCN1CCN(C(C)(C)C(=O)Nc2cc(Cl)cc(NC3CCC(=O)NC3=O)c2)CC1 (centres unmarked) [Example 133]"
result = "** (25%<Y<=35%)"

[[record]]
compound = "CCc1cc(N2C(=S)N(c3cnc(C#N)c(C(F)(F)F)c3)C(=O)C2(C)C)ccc1OCCN1C[C@@H]2CC[C@H]1CN2CC(=O)Nc1cc(Cl)cc(NC2CCC(=O)NC2=O)c1 (some centres unmarked) [Example 179]"
result = "** (25%<Y<=35%)"

[[record]]
compound = "CC(C)c1cc(N2C(=S)N(c3ccc(C#N)c(C(F)(F)F)c3)C(=O)C2(C)C)cnc1OCCN1C[C@@H](C)N(CC(=O)Nc2cccc(NC3CCC(=O)NC3=O)c2)[C@@H](C)C1 (some centres unmarked) [Example 224]"
result = "** (25%<Y<=35%)"

[[record]]
compound = "C[C@@H]1CN(CCOc2ccc(N3C(=S)N(c4cnc(C#N)c(C(F)(F)F)c4)C(=O)C3(C)C)cc2CCF)CCN1CC(=O)Nc1cccc(NC2CCC(=O)NC2=O)c1 (some centres unmarked) [Example 166]"
result = "* (0<Y<=25%)"

[[record]]
compound = "CC(C)c1cc(N2C(=S)N(c3ccc(C#N)c(C(F)(F)F)c3)C(=O)C2(C)C)ccc1OCCN1C[C@@H](C)N(CC(=O)Nc2cc(Cl)cc(NC3CCC(=O)NC3=O)c2)C[C@H]1C (some centres unmarked) [Example 175]"
result = "* (0<Y<=25%)"

[[record]]
compound = "CCc1cc(N2C(=S)N(c3cnc(C#N)c(C(F)(F)F)c3)C(=O)C2(C)C)ccc1OCCN1CCN(CC(=O)Nc2cc(Cl)cc(NC3CCC(=O)NC3=O)c2)[C@H](C)C1 (some centres unmarked) [Example 74]"
result = "* (0<Y<=25%)"

[[record]]
compound = "CC(C)c1cc(N2C(=S)N(c3ccc(C#N)c(C(F)(F)F)c3)C(=O)C2(C)C)ccc1OCCN1CCN(CC(=O)Nc2cccc(NC3CCC(=O)NC3=O)c2)[C@H](C(F)(F)F)C1 (some centres unmarked) [Example 257]"
result = "*** (35%<Y<50%)"

[[record]]
compound = "N#Cc1ncc(N2C(=O)C3(CCC3)N(c3ccc(OCCN4CCN(CC(=O)Nc5cccc(NC6CCC(=O)NC6=O)c5)CC4)c(F)c3)C2=S)cc1C(F)(F)F (centres unmarked) [Example 6]"
result = "** (25%<Y<=35%)"

[[record]]
compound = "CCc1cc(N2C(=S)N(c3cnc(C#N)c(C(F)(F)F)c3)C(=O)C2(C)C)ccc1OCCN1CCN([C@H](C)C(=O)Nc2cc(F)cc(NC3CCC(=O)NC3=O)c2)CC1 (some centres unmarked) [Example 117]"
result = "* (0<Y<=25%)"

[[record]]
compound = "C[C@@H]1CN(CCOc2ccc(N3C(=S)N(c4ccc(C#N)c(C(F)(F)F)c4)C(=O)C3(C)C)cc2C(C)(F)F)C[C@H](C)N1CC(=O)Nc1cccc(NC2CCC(=O)NC2=O)c1 (some centres unmarked) [Example 252]"
result = "* (0<Y<=25%)"

[[record]]
compound = "CC(C)c1cc(N2C(=S)N(c3ccc(C#N)c(C(F)(F)F)c3)C(=O)C2(C)C)ccc1OCCN1C[C@@H](C)N(CC(=O)Nc2cccc(NC3CCC(=O)NC3=O)c2)C[C@H]1C (some centres unmarked) [Example 193]"
result = "** (25%<Y<=35%)"

[[record]]
compound = "CCc1cc(N2C(=S)N(c3ccc(C#N)c(C(F)(F)F)c3)C(=O)C2(C)C)ccc1OCCN1C[C@@H](C)N(CC(=O)Nc2cccc(N[C@H]3CCC(=O)NC3=O)c2)[C@@H](C)C1 [Example 285]"
result = "* (0<Y<=25%)"

[[record]]
compound = "CCc1cc(N2C(=S)N(c3cnc(C#N)c(C(F)(F)F)c3)C(=O)C2(C)C)ccc1O[C@H](C)CN1C[C@@H](C)N(CC(=O)Nc2cccc(NC3CCC(=O)NC3=O)c2)[C@@H](C)C1 (single isomer, unassigned) [Example 239]"
result = "* (0<Y<=25%)"

[[record]]
compound = "CC1(C)C(=O)N(c2cnc(C#N)c(C(F)(F)F)c2)C(=S)N1c1ccc(OCCN2CCN(CC(=O)Nc3cccc(NC4CCC(=O)NC4=O)c3)CC2)c(C2CCC2)c1 (centres unmarked) [Example 36, trifluoroacetate]"
result = "* (0<Y<=25%)"

[[record]]
compound = "CCc1cc(N2C(=S)N(c3ccc(C#N)c(Cl)c3)C(=O)C2(C)C)ccc1OCCN1CCN(CC(=O)Nc2cccc(NC3CCC(=O)NC3=O)c2)[C@H](C)C1 (some centres unmarked) [Example 168]"
result = "* (0<Y<=25%)"

[[record]]
compound = "CC1(C)C(=O)N(c2ccc(C#N)c(C(F)(F)F)c2)C(=S)N1c1ccc(OCCN2CCN(CC(=O)Nc3cc(NC4CCC(=O)NC4=O)ccc3F)CC2)c(CC(F)F)c1 (centres unmarked) [Example 174]"
result = "* (0<Y<=25%)"


====

target: AR (Homo sapiens); construct: endogenous in cells; host or cells: VCaP cells; assay: VCAP AR Degradation Assay; assay type: cell-based; settings: class symbols A-C, read-out: DC50
Structures can show the parent of a compound that is named as a salt.
assay-readout: DC50

[[record]]
molecule = "CC1(C)C(=O)N(c2ccc(C#N)c(C(F)(F)F)c2)C(=S)N1c1ccc(OCCN2CCN(CC(=O)Nc3cccc(NC4CCC(=O)NC4=O)c3)CC2)c(C2CC2)c1 (centres unmarked) [Example 9, hydrochloride]"
assayed_target = "AR (Homo sapiens)"
assay_readout = "DC50"
result = "< 100 nM"

[[record]]
molecule = "CC1(C)C(=O)N(c2cnc(C#N)c(C(F)(F)F)c2)C(=S)N1c1ccc(OCCN2CCN(CC(=O)Nc3cc(NC4CCC(=O)NC4=O)ccc3F)CC2)cc1 (centres unmarked)"
assayed_target = "AR (Homo sapiens)"
assay_readout = "DC50"
result = "< 100 nM"

[[record]]
molecule = "CCc1cc(N2C(=S)N(c3cnc(C#N)c(C(F)(F)F)c3)C(=O)C2(C)C)ccc1OCCN1CCN(CC(=O)Nc2cc(F)cc(NC3CCC(=O)NC3=O)c2)[C@H](C)C1 (some centres unmarked)"
assayed_target = "AR (Homo sapiens)"
assay_readout = "DC50"
result = "< 100 nM"

[[record]]
molecule = "N#Cc1ccc(N2C(=O)C3(CCOC3)N(c3ccc(OCCN4CCN(CC(=O)Nc5cc(Cl)cc(NC6CCC(=O)NC6=O)c5)CC4)c(F)c3)C2=S)cc1C(F)(F)F (single isomer, unassigned) [Example 55]"
assayed_target = "AR (Homo sapiens)"
assay_readout = "DC50"
result = "100 to 500 nM"

[[record]]
molecule = "C[C@@H]1CN(CCOc2ccc(N3C(=S)N(c4ccc(C#N)c(Cl)c4)C(=O)C3(C)C)cc2C2CC2)C[C@H](C)N1CC(=O)Nc1cc(Cl)cc(NC2CCC(=O)NC2=O)c1 (some centres unmarked)"
assayed_target = "AR (Homo sapiens)"
assay_readout = "DC50"
result = "< 100 nM"

